pEC50 values by entry
Tgt: UniProt:Q8TDU6
Procedure text: cAMP production assay in HEK293-TGR5 cells
Measurement setup: HEK293 cells stably expressing human TGR5; 30 minutes stimulation; LANCE cAMP TR-FRET; read-out: cAMP Production in 293-TGR5 Cells EC50
pEC50: −log10 of the molar value.

>>> print(df.to_string())
                                   compound  reported_result
0  COc1ccc2cc(CCNCc3ccc(C(F)(F)F)cc3)c(-c3ccsc3)nc2c1           < 5.00
1  Oc1ccc2cc(CNCCc3ccc(Br)cc3)c(-c3ccco3)nc2c1           < 5.00
2  CCOc1ccc2cc(CNCc3ccc(C(F)(F)F)cc3)c(-c3ccsc3)nc2c1           > 5.00

[ask] Recorded pEC50 of COc1cc(OC)c2cc(CNCCc3ccc(Br)cc3)c(-c3ccsc3)nc2c1 , please.
[reply] > 5.00

[ask] Also, Cc1ccc2cc(CNCc3ccc(C(F)(F)F)cc3)c(-c3ccsc3)nc2c1 please.
[reply] > 5.00

[ask] Also, CC(NCCc1ccc(Br)cc1)c1cc2ccc(O)cc2nc1-c1ccsc1 (racemic) please.
[reply] < 5.00

[ask] Also, COc1ccc2cc(CNCc3cccnc3)c(-c3ccsc3)nc2c1 please.
[reply] < 5.00

[ask] Also, COc1ccc2c(C)c(CNCCc3ccc(Br)cc3)c(-c3ccsc3)nc2c1 please.
[reply] < 5.00

[ask] Also, Nc1ccc2cc(CNCCc3ccc(Br)cc3)c(-c3ccsc3)nc2c1 please.
[reply] < 5.00

---

Tgt: human TGR5 (Homo sapiens, UniProt Q8TDU6)
Procedure text: cAMP production assay in HEK293-TGR5 cells
Measurement setup: HEK293 cells stably expressing human TGR5; 30 minutes stimulation; LANCE cAMP TR-FRET; read-out: cAMP Production in 293-TGR5 Cells EC50
pEC50: −log10 of the molar value.
pEC50 values by entry

                                   compound  readout_label  reported_result
0  COc1cc2cc(CNCCc3ccc(Br)cc3)c(-c3ccsc3)nc2cc1Cl          pEC50           < 5.00
1  COc1ccc2cc(CNCCc3ccc(OC)c(Br)c3)c(-c3ccsc3)nc2c1          pEC50           > 5.00
2  Oc1ccc2cc(CNCCc3ccc(Br)cc3)c(-c3ccncc3)nc2c1          pEC50           > 5.00
3  Oc1ccc2nc(-c3ccsc3)c(CNCCc3ccc(Cl)cc3)cc2c1          pEC50           > 5.00

Okay, next one:
[ask] # get_value(readout= pEC50, system= human TGR5 (Homo sapiens, UniProt Q8TDU6)) for COc1ccc2cc(CNC(C)Cc3ccc(Br)cc3)c(-c3ccsc3)nc2c1 (centres unmarked)
[reply] < 5.00

---

pEC50 values by entry
Tgt: UniProtKB Q8TDU6
Sequence (Q8TDU6 1-330): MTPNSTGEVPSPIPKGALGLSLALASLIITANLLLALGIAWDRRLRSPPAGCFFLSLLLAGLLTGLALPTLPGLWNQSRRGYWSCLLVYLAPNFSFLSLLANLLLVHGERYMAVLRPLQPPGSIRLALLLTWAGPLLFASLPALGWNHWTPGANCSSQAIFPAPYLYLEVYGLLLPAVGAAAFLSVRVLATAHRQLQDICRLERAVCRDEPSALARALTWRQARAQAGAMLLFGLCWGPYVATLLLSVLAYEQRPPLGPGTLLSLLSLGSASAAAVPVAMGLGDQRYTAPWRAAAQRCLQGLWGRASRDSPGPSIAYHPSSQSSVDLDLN
Procedure text: cAMP production assay in HEK293-TGR5 cells
Measurement setup: HEK293 cells stably expressing human TGR5; 30 minutes stimulation; LANCE cAMP TR-FRET; read-out: cAMP Production in 293-TGR5 Cells EC50
pEC50: −log10 of the molar value.

>>> print(df.to_string())
                                   molecule  readout_label  reported_result
0  COc1ccc2cc(C(C)NCCc3ccc(Br)cc3)c(-c3ccsc3)nc2c1 (racemic) [Example 143]          pEC50           < 5.00

[ask] Recorded pEC50 of COc1cc2nc(-c3ccsc3)c(CNCc3ccc(C(F)(F)F)cc3)cc2cc1O [Example 122] , please.
[reply] < 5.00

[ask] Also, COc1ccc2cc(CNCc3ccc(F)c(Cl)c3)c(-c3ccncc3)nc2c1 [Example 92] please.
[reply] > 5.00

[ask] Also, Oc1cc2cc(CNCCc3ccc(Br)cc3)c(-c3ccsc3)nc2cc1Cl [Example 124] please.
[reply] < 5.00

[ask] Also, CCOC(=O)c1ccc2cc(CNCCc3ccc(Br)cc3)c(-c3ccsc3)nc2c1 [Example 137] please.
[reply] < 5.00

[ask] Also, O=[N+]([O-])c1ccc2cc(CNCCc3ccc(Br)cc3)c(-c3ccsc3)nc2c1 [Example 127] please.
[reply] < 5.00

[ask] Also, COc1ccc2cc(CNCc3ccc(C(F)(F)F)cc3)c(Oc3cccnc3)nc2c1 [Example 83] please.
[reply] > 5.00

[ask] Also, COc1ccc2cc(CNCc3ccc(N(C)C)cc3)c(-c3cccnc3)nc2c1 [Example 11] please.
[reply] > 5.00
